Documented Maximum mean fluorescence intensity (30 µg/ml) across a set of binders
Biological target: T1, CD19 expressed by Nalm6 cells (UniProt P15391 20-556, limits assumed)
T1 construct: whole, on cells; Endogenous CD19 on tumor cell lines; also called Nalm6/GL; CD19 antigen on RAJI-GL and NALM6-GL tumor cells
T1 sequence (looked up): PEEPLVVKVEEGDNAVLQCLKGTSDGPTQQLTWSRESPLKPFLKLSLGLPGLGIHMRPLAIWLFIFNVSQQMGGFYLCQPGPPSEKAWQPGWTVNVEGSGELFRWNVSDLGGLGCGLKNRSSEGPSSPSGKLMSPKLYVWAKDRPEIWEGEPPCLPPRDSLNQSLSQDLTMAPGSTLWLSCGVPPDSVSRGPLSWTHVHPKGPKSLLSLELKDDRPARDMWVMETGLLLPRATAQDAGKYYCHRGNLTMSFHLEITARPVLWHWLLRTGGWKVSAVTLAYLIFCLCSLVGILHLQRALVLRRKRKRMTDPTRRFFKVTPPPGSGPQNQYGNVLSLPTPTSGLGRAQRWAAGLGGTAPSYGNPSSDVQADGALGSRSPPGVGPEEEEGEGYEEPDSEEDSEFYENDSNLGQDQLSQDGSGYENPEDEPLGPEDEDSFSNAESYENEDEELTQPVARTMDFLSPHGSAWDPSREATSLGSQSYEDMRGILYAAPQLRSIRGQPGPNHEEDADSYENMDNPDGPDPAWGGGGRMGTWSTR
Assay: flow cytometry on Nalm6 cells
Could you keep your reply to the number by itself?

Consider the binder shown here: 27F11 (hybridoma antibody) (antibody, V domains shown, hybridoma mAb from H2L2 mouse (human variable, rat constant regions)) VH: QVQLVESGGGVVQPGRSLRLSCAASGFTFSRHGMHWVRQAPGKGLEWVAVIYYDGSNKYYVDSVKGRFTISRDNSKNTLDLQMNSLRAEDTAVYYCARRSITWNGAFDIWGQGTMVTVSS VL: DIQMTQSPSTLSASVGDRVTISCRASQSISSWLAWYQQKPGKAPKLLIYKASSLESGVPSRFSGSGSGTEFTLTISSLQPDDFATYYCQQYNSAYTFGQGTKLEIK What is its recorded Maximum mean fluorescence intensity (30 µg/ml)?
30000

Fill in: Maximum mean fluorescence intensity (30 µg/ml) of 17B6 (hybridoma antibody) (antibody, V domains shown, hybridoma mAb from H2L2 mouse (human variable, rat constant regions)) VH: QVQLVESGGGVVQPGRSLRLSCEASGFTFSRHGMHWVRQAPGKGLEWVAVIFYDGSQNYYADSVRGRFTISRDNSKNTLSLQMDSLRAEDTAVYYCARRSITWNGGFDIWGQGTMVTVSP VL: DIQMTQSPSTLSASVGDRVTITCRASQSISSWLAWYQQKPGKAPKLLIYKASSLESGVPSRFSGSGSGTEFTLAISSLQPDDFATYYCQQYNRFYTFGQGTKLEIK is ___
25500

Others:
Fill in: Maximum mean fluorescence intensity (30 µg/ml) of 11H8 (hybridoma antibody) (antibody, V domains shown, hybridoma mAb from H2L2 mouse (human variable, rat constant regions)) VH: QVQLVESGGGVVQPGRSLRLSCAASGFTFSRHGMHWVRQAPGKGLEWVAVIWYDGSNQYYVDSVKGRFTISRDNSKNTLDLQMNSLRVEDTAVYYCARRSITWYGGFDIWGQGTMVTVSS VL: DIQMTQSPSTLSASVGDRVTITCRASQSISSWLAWYQQKPGKAPKLLIYKASSLESGVPPRFSGSGSGTEFTLTISSLQPDDFATYYCQQYNSAYTFGQGTKLEIK is ___
23300
